Measured pKi, listed per entry for reference.
target: recombinant human NK3 receptor (Homo sapiens)
Construct: expressed in transfected cells; host or cells: HEK293 cells (transient expression), membranes
Sequence (P29371 whole entry): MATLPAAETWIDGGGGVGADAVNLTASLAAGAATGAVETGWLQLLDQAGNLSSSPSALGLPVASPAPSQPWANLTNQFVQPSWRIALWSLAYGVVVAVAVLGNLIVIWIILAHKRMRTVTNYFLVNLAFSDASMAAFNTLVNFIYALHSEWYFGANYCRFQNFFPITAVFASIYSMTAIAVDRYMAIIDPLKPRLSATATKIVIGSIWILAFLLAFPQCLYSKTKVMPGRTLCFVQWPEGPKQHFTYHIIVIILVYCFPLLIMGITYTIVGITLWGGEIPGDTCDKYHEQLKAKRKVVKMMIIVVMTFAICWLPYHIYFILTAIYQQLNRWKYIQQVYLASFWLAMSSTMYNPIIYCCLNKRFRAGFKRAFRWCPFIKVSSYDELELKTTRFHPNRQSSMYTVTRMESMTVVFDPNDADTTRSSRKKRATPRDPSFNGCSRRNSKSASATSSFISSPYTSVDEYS
experiment-description: [3H]SR142801 competition binding assay
condition-parameters: membranes from HEK293 cells transiently expressing recombinant human NK3 receptor; [3H]SR142801 radioligand; 75 min at RT; Ki by Cheng-Prussoff; read-out: Data Ki (hNK-3 receptor affinity)
pKi: −log10 of the molar value.
result-type: pKi

>  <molecule>
O=C(N1CCN(c2ccc(F)cc2)CC1)N1CCC(C(=O)NC2(c3ccc(F)cc3)CC2)(c2ccc(F)cc2)CC1 [Example 174]

>  <result-type>
pKi

>  <observed-measurement>
7.62

$$$$
>  <molecule>
Cc1noc(-c2ccc(C(=O)N3CCC(C(=O)N[C@@H](C)c4ccc(F)cc4)(c4ccccc4)CC3)cc2)n1 [Example 76]

>  <result-type>
pKi

>  <observed-measurement>
8.54

$$$$
>  <molecule>
CC(C)CC1(C(=O)N[C@@H](C)c2ccc(F)cc2)CCN(C(=O)c2ccc(-c3ccc(F)cc3)cc2)CC1 [Example 122]

>  <result-type>
pKi

>  <observed-measurement>
7.59

$$$$
>  <molecule>
CCN(NC(=O)C1(c2ccc(F)cc2)CCN(C(=O)c2ccc(-c3nc(C)no3)cc2)CC1)c1ccc(F)cc1 [Example 160]

>  <result-type>
pKi

>  <observed-measurement>
7.04

$$$$
>  <molecule>
CC(C)N(NC(=O)C1(c2ccc(F)cc2)CCN(C(=O)c2ccc(-c3ccc(F)cc3)cc2)CC1)c1ccc(F)cc1 [Example 185]

>  <result-type>
pKi

>  <observed-measurement>
7.20

$$$$
>  <molecule>
Cc1ccc(NNC(=O)C2(c3ccc(F)cc3)CCN(C(=O)c3ccc(-c4ccc(F)cc4)cc3)CC2)cc1 [Example 187]

>  <result-type>
pKi

>  <observed-measurement>
7.12

$$$$
>  <molecule>
C[C@H](NC(=O)C1(c2ccccc2)CCN(C(=O)N2CCC(N3CCCCC3=O)CC2)CC1)c1ccccc1 [Example 216]

>  <result-type>
pKi

>  <observed-measurement>
7.76

$$$$
>  <molecule>
C[C@H](NC(=O)C1(c2ccccc2)CCN(C(=O)N2CCN(c3cnccn3)CC2)CC1)c1ccccc1 [Example 209]

>  <result-type>
pKi

>  <observed-measurement>
7.23

$$$$
